System: MDA-MB-468 breast
Assay: NCI-60 one-dose screen, 48 h (100 = growth as untreated, 0 = no growth, -100 = all killed)
Conditions: 10 µM unless noted
This is part of a sample that, as a whole, favours compounds with a hit. Of some 83,000 tested, about 20% had one in any assay. The source made the active and inactive calls. How the source made its calls: active means growth percent below 10; inactive means the rest.
growth for assorted molecules

# count of solved cases: 2
>>> print(df.to_string())
                              record_smiles  property_label            result
0  COc1ccc(OC)c(Nc2nnc(-c3ccc(O)c(OC)c3)o2)c1          growth  71.7% (inactive)
1  CCN1CCN(CC(=O)Nc2nc3ccc(NCc4ccc(C)cc4)cc3s2)CC1          growth  68.2% (inactive)

Continue with the molecule presented below.
# value of growth, MDA-MB-468 breast, item CCCCNCCCCCNc1cc(OC)cc2cccnc12 = 68.8% (inactive)
